- System: Adenosine receptor A1 (Mesocricetus auratus)
- Measurement Notes: Intrinsic activity at adenosine A1 receptor assessed as maximal inhibition of isoproterenol-stimulated cAMP accumulation in DDT1MF-2 cells relative to CPA
Measurement Type: Intrinsic activity

Compound	Intrinsic activity
O[C@@H]1[C@H](O)[C@@H](CS)O[C@H]1n1cnc2c(N[C@H]3C[C@H]4CC[C@H]3C4)ncnc21	1
CCNC(=O)[C@H]1O[C@@H](n2cnc3c(N[C@H]4C[C@@H]5C[C@@H]4C4SC45)ncnc32)[C@H](O)[C@@H]1O (some centres undefined)	0.98
O[C@@H]1[C@H](O)[C@@H](CF)O[C@H]1n1cnc2c(N[C@H]3C[C@H]4CC[C@H]3C4)ncnc21	0.97
CCSC[C@H]1O[C@@H](n2cnc3c(N[C@H]4C[C@H]5CC[C@H]4C5)ncnc32)[C@H](O)[C@@H]1O	1.04

---

- Tgt: Adenosine receptor A1 (Mesocricetus auratus)
- Measurement Notes: Agonist activity at adenosine A1 receptor assessed as inhibition of isoproterenol-stimulated cAMP accumulation in DDT1MF-2 cells
Measurement Type: IC50 (nM)

See these solved cases before continuing.
Molecule	Tgt	Unit Text	IC50
CC(=O)NC[C@H]1O[C@@H](n2cnc3c(N[C@H]4C[C@H]5CC[C@H]4C5)ncnc32)[C@H](O)[C@@H]1O	Adenosine receptor A1 (Mesocricetus auratus)	nM	605
CCNC(=O)[C@H]1O[C@@H](n2cnc3c(N[C@H]4C[C@@H]5C[C@@H]4C4SC45)ncnc32)[C@H](O)[C@@H]1O (stereo partly specified)	Adenosine receptor A1 (Mesocricetus auratus)	nM	0.12
NC[C@H]1O[C@@H](n2cnc3c(N[C@H]4C[C@H]5CC[C@H]4C5)ncnc32)[C@H](O)[C@@H]1O	Adenosine receptor A1 (Mesocricetus auratus)	nM	351

I: CCCNC[C@H]1O[C@@H](n2cnc3c(N[C@H]4C[C@H]5CC[C@H]4C5)ncnc32)[C@H](O)[C@@H]1O
II: O[C@@H]1[C@H](O)[C@@H](CF)O[C@H]1n1cnc2c(N[C@H]3C[C@H]4CC[C@H]3C4)ncnc21
### Prompt Hi there! Just curious which has the higher IC50 between I and II . Your answer should be the label attached to the chosen record.
### Response I

I: CNC[C@H]1O[C@@H](n2cnc3c(N[C@H]4C[C@H]5CC[C@H]4C5)ncnc32)[C@H](O)[C@@H]1O
II: CCSC[C@H]1O[C@@H](n2cnc3c(N[C@H]4C[C@H]5CC[C@H]4C5)ncnc32)[C@H](O)[C@@H]1O
III: O[C@@H]1[C@H](O)[C@@H](CS)O[C@H]1n1cnc2c(N[C@H]3C[C@H]4CC[C@H]3C4)ncnc21
### Prompt Hi! Can you put these in order of IC50, lowest number first? Answer format: list of labels, ordered as asked.
### Response II, III, I

---

- Test system: Adenosine receptor A1 (Mesocricetus auratus)
- Measurement Notes: Ratio of Ki to IC50 for adenosine A1 receptor
Measurement Type: Ratio

Compound	Ratio
CCNC(=O)[C@H]1O[C@@H](n2cnc3c(N[C@H]4C[C@@H]5C[C@@H]4C4SC45)ncnc32)[C@H](O)[C@@H]1O (stereo partly specified)	1.3
CC(=O)NC[C@H]1O[C@@H](n2cnc3c(N[C@H]4C[C@H]5CC[C@H]4C5)ncnc32)[C@H](O)[C@@H]1O	1.3
O[C@@H]1[C@H](O)[C@@H](CF)O[C@H]1n1cnc2c(N[C@H]3C[C@H]4CC[C@H]3C4)ncnc21	1.3
CCCNC[C@H]1O[C@@H](n2cnc3c(N[C@H]4C[C@H]5CC[C@H]4C5)ncnc32)[C@H](O)[C@@H]1O	1.3
O[C@@H]1[C@H](O)[C@@H](CS)O[C@H]1n1cnc2c(N[C@H]3C[C@H]4CC[C@H]3C4)ncnc21	1.3
NC[C@H]1O[C@@H](n2cnc3c(N[C@H]4C[C@H]5CC[C@H]4C5)ncnc32)[C@H](O)[C@@H]1O	1.3

---

- Tgt: Adenosine receptor A1 (Mesocricetus auratus)
- Measurement Notes: Displacement of [3H]CPX from adenosine A1 receptor in DDT1MF-2 cells
pKi: −log10 of the molar value.
Measurement Type: pKi

Compound	Measured Number
O[C@@H]1[C@H](O)[C@@H](CS)O[C@H]1n1cnc2c(N[C@H]3C[C@H]4CC[C@H]3C4)ncnc21	6.55

1: CCSC[C@H]1O[C@@H](n2cnc3c(N[C@H]4C[C@H]5CC[C@H]4C5)ncnc32)[C@H](O)[C@@H]1O
2: CCCNC[C@H]1O[C@@H](n2cnc3c(N[C@H]4C[C@H]5CC[C@H]4C5)ncnc32)[C@H](O)[C@@H]1O
3: O[C@@H]1[C@H](O)[C@@H](CF)O[C@H]1n1cnc2c(N[C@H]3C[C@H]4CC[C@H]3C4)ncnc21
### Prompt List these items ordered by pKi, big to small. API: response body holds the labels in the requested order.
### Response 3, 1, 2
(3: 7.77, 1: 6.91, 2: 5.14)

---

- System: Adenosine receptor A1 (Mesocricetus auratus)
- Measurement Notes: Intrinsic activity at adenosine A1 receptor assessed as maximal inhibition of isoproterenol-stimulated cAMP accumulation in DDT1MF-2 cells relative to CPA
Measurement Type: Intrinsic activity

Compound	Intrinsic activity
CCSC[C@H]1O[C@@H](n2cnc3c(NC4CCCC4)ncnc32)[C@H](O)[C@@H]1O	1.02
CNC(=O)O[C@H]1O[C@@H](n2cnc3c(N[C@H]4C[C@@H]5C[C@@H]4C4SC45)ncnc32)[C@H](O)[C@@H]1O (some centres not stated)	1.03
CC(=O)NC[C@H]1O[C@@H](n2cnc3c(N[C@H]4C[C@H]5CC[C@H]4C5)ncnc32)[C@H](O)[C@@H]1O	0.97
NC[C@H]1O[C@@H](n2cnc3c(N[C@H]4C[C@H]5CC[C@H]4C5)ncnc32)[C@H](O)[C@@H]1O	0.92
CNC[C@H]1O[C@@H](n2cnc3c(N[C@H]4C[C@H]5CC[C@H]4C5)ncnc32)[C@H](O)[C@@H]1O	0.83
CCCNC[C@H]1O[C@@H](n2cnc3c(N[C@H]4C[C@H]5CC[C@H]4C5)ncnc32)[C@H](O)[C@@H]1O	0.91
C[Se]C[C@H]1O[C@@H](n2cnc3c(N[C@H]4C[C@@H]5C[C@@H]4C4SC45)ncnc32)[C@H](O)[C@@H]1O (some centres not stated)	0.96

---

Reported IC50 is given for each of the following compounds.
- Tgt: Adenosine receptor A1 (Mesocricetus auratus)
- Measurement Notes: Agonist activity at adenosine A1 receptor assessed as inhibition of isoproterenol-stimulated cAMP accumulation in DDT1MF-2 cells
Please give a number only; it is taken to be in nM.

Compound	IC50, nM
CNC(=O)O[C@H]1O[C@@H](n2cnc3c(N[C@H]4C[C@@H]5C[C@@H]4C4SC45)ncnc32)[C@H](O)[C@@H]1O (stereo partly drawn)	410
C[Se]C[C@H]1O[C@@H](n2cnc3c(N[C@H]4C[C@@H]5C[C@@H]4C4SC45)ncnc32)[C@H](O)[C@@H]1O (stereo partly drawn)	12

### Prompt Fill in the blank: the reported IC50 of CCSC[C@H]1O[C@@H](n2cnc3c(NC4CCCC4)ncnc32)[C@H](O)[C@@H]1O is ____.
### Response 21

---

- Tgt: Adenosine receptor A1 (Mesocricetus auratus)
- Measurement Notes: Displacement of [3H]CPX from adenosine A1 receptor in DDT1MF-2 cells
Measurement Type: Ki (nM)

Previously resolved entries follow.
Compound	Ki [nM]
CCNC(=O)[C@H]1O[C@@H](n2cnc3c(N[C@H]4C[C@@H]5C[C@@H]4C4SC45)ncnc32)[C@H](O)[C@@H]1O (some centres not stated)	0.9
CNC(=O)O[C@H]1O[C@@H](n2cnc3c(N[C@H]4C[C@@H]5C[C@@H]4C4SC45)ncnc32)[C@H](O)[C@@H]1O (some centres not stated)	590
CCSC[C@H]1O[C@@H](n2cnc3c(NC4CCCC4)ncnc32)[C@H](O)[C@@H]1O	173
C[Se]C[C@H]1O[C@@H](n2cnc3c(N[C@H]4C[C@@H]5C[C@@H]4C4SC45)ncnc32)[C@H](O)[C@@H]1O (some centres not stated)	30

a: NC[C@H]1O[C@@H](n2cnc3c(N[C@H]4C[C@H]5CC[C@H]4C5)ncnc32)[C@H](O)[C@@H]1O
b: CC(=O)NC[C@H]1O[C@@H](n2cnc3c(N[C@H]4C[C@H]5CC[C@H]4C5)ncnc32)[C@H](O)[C@@H]1O
### Prompt I'd appreciate it if you could identify which of a and b has the greater Ki. Provide the label of your selected option as the answer.
### Response b
